experiment: Cardiotonic activity in guinea pig left atrial muscles assessed as minimum positive inotropic effective concentration causing myocardial contraction; type: functional, Cavia porcellus, Muscle tissue
readoutName: Activity (µM)
Respond numerically; units are µM and should not be typed.

Using the record for C[C@@H]1O[C@@H](O[C@H]2CC[C@]3(C=O)[C@H]4CC[C@]5(C)[C@@H](C6=CC(=O)OC6)CC[C@]5(O)[C@@H]4CC[C@]3(O)C2)[C@H](O)[C@H](O)[C@H]1O , report its Activity.
0.1

// lookup Activity for C[C@@H]1O[C@@H](O[C@H]2CC[C@]3(C=O)[C@H]4CC[C@]5(C)[C@@H](C6=CC(=O)OC6)CC[C@]5(O)[C@@H]4CC[C@]3(O)C2)[C@H](O)[C@H](O)[C@H]1O[C@@H]1O[C@H](CO)[C@@H](O)[C@H](O)[C@H]1O [CONVALLOSIDE]
0.25

Data request, read-out Activity, for C[C@]12CC[C@H]3[C@@H](CC[C@]4(O)C[C@@H](O)CC[C@]34CO)[C@@]1(O)CC[C@@H]2C1=CC(=O)OC1
1.25

Consider the molecule shown here: C[C@H]1O[C@H](O[C@H]2CC[C@]3(C=O)[C@H]4C[C@@H](O)[C@]5(C)[C@@H](C6=CC(=O)OC6)CC[C@]5(O)[C@@H]4CC[C@]3(O)C2)[C@H](O)[C@H](O)[C@@H]1O [ANTIALLOSIDE] What is its recorded Activity?
0.25

Each recorded value in this set is attributed to ChEMBL document CHEMBL1177741.
